tested on: RARg homodimer (NR concentration 270 nM); test: PBM binding z-score (relative to random genomic background probes); higher = stronger binding; sequences stand for … in GC…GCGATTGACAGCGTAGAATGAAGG
We use 0.8 as the dividing line for PBM binding z-score: on or above the line is y, below is n.

Answered cases to consult:
constructSequence: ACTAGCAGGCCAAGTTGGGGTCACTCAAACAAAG
testTarget: RARg homodimer (NR concentration 270 nM)
assignedLabel: y
--
constructSequence: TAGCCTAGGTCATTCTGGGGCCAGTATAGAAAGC
testTarget: RARg homodimer (NR concentration 270 nM)
assignedLabel: y
--
constructSequence: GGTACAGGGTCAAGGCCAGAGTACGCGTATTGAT
testTarget: RARg homodimer (NR concentration 270 nM)
assignedLabel: y
--
constructSequence: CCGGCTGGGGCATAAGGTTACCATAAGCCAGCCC
testTarget: RARg homodimer (NR concentration 270 nM)
assignedLabel: y
--
constructSequence: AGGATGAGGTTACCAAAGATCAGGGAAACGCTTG
testTarget: RARg homodimer (NR concentration 270 nM)
assignedLabel: y

Inquiry: Is the recorded value of PBM binding z-score equal to or greater than 0.8 for this sequence? `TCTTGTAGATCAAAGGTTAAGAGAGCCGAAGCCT`
Reply text: n

Inquiry: Please do the same for `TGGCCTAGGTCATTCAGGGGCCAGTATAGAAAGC` as well.
Reply text: y

Inquiry: Can you handle `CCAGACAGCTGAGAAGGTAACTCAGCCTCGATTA` next?
Reply text: n

---

system: VDR:RXRa (NR concentration 270 nM, RXRa partner concentration 90 nM); assay: PBM binding z-score (relative to random genomic background probes); higher = stronger binding; sequences stand for … in GC…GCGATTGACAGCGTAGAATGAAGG
measure: PBM binding z-score
Answers are plain numbers.

Reference set, count: 5
constructSequence: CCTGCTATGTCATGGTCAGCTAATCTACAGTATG
PBM binding z-score: -0.0549

constructSequence: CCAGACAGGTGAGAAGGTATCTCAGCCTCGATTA
PBM binding z-score: -0.224

constructSequence: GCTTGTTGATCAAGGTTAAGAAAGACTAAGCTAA
PBM binding z-score: 0.122

constructSequence: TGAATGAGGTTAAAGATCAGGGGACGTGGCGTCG
PBM binding z-score: 1.88

constructSequence: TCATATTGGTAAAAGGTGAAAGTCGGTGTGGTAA
PBM binding z-score: 1.64

Working through the 8 sequences below one at a time, give PBM binding z-score for each.
1. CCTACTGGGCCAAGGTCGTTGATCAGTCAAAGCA
2. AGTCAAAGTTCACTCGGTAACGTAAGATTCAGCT
3. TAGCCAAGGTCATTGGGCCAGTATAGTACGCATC
4. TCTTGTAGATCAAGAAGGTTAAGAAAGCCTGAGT
5. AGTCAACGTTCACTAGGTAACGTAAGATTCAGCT
6. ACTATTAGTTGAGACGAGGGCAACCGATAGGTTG
7. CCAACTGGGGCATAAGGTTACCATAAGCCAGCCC
8. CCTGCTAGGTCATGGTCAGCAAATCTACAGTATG

Reply text:
0.505
4.31
4.87
1.16
-0.186
0.889
0.316
1.48

These entries and their values trace back to the supplement of paper PMC6555819.
